- target_or_system: Human spleen cathepsin S (Homo sapiens, UniProt P25774)
- Construct: Human spleen cathepsin S (Calbiochem 219344, 40 ng/mL); purchased Calbiochem 219344; host or cells: human spleen
- Sequence (P25774 115-331): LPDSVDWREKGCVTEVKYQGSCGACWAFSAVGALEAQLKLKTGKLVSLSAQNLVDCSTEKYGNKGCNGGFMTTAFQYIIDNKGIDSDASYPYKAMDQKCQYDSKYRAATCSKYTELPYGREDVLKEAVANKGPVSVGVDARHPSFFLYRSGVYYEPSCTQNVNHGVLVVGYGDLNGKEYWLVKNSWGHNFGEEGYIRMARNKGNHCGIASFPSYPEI
- test_method_notes: Cathepsin S assay, IC50 determination
- Type: biochemical
- test_context: Tables 2-11; read-out: Cat S
- Experimental: Human spleen cathepsin S (Calbiochem 219344, 40 ng/mL) was assayed using 15 microM Z-Phe-Arg-AMC substrate. Human liver cathepsin B (Calbiochem 219362, 65 ng/mL) was assayed using 15 microM Z-Arg-Arg-AMC substrate (Bachem I-1135). All reactions were performed in 20 mM sodium acetate buffer containing 1 mM EDTA and 5 mM cysteine, pH 5.5. […]

>  <cpd_smiles>
CC(C)(C)OC(=O)N[C@@H](Cc1c[nH]c2ccccc12)C(=O)NOCC(=O)N1CCCc2ccccc21

>  <target_or_system>
Human spleen cathepsin S (Homo sapiens, UniProt P25774)

>  <IC50>
≥ 25 µM

$$$$
>  <cpd_smiles>
C/C=C(/C=O)[C@@H](CC=O)CC(=O)OCCc1ccc(O)cc1

>  <target_or_system>
Human spleen cathepsin S (Homo sapiens, UniProt P25774)

>  <IC50>
≥ 25 µM

$$$$
>  <cpd_smiles>
CC(C)(C)OC(=O)N[C@@H](Cc1c[nH]c2ccccc12)C(=O)N/N=C/c1ccccc1

>  <target_or_system>
Human spleen cathepsin S (Homo sapiens, UniProt P25774)

>  <IC50>
≥ 25 µM

$$$$
>  <cpd_smiles>
CSCC[C@H](NC(=O)OC(C)(C)C)C(=O)NNC(=O)c1ccccc1

>  <target_or_system>
Human spleen cathepsin S (Homo sapiens, UniProt P25774)

>  <IC50>
≥ 25 µM

$$$$
>  <cpd_smiles>
CC(C)(C)OC(=O)N[C@@H](Cc1c[nH]c2ccccc12)C(=O)NN

>  <target_or_system>
Human spleen cathepsin S (Homo sapiens, UniProt P25774)

>  <IC50>
≥ 25 µM

$$$$
>  <cpd_smiles>
CCc1ccccc1NC(=O)CCC(=O)NNC(=O)[C@H](Cc1c[nH]c2ccccc12)NC(=O)OC(C)(C)C

>  <target_or_system>
Human spleen cathepsin S (Homo sapiens, UniProt P25774)

>  <IC50>
≥ 25 µM

$$$$
>  <cpd_smiles>
CC(C)(C)OC(=O)N[C@@H](Cc1ccc(OC(=O)OC(C)(C)C)cc1)C(=O)NNC(=O)C(=O)N1CCc2ccccc2C1

>  <target_or_system>
Human spleen cathepsin S (Homo sapiens, UniProt P25774)

>  <IC50>
≥ 25 µM

$$$$

---

- target_or_system: human liver cathepsin L (Homo sapiens, UniProt P07711)
- Construct: 8.7 ng/mL human liver cathepsin L (Calbiochem 219402); purchased Calbiochem 219402; host or cells: human liver
- Sequence (P07711 114-288 limits assumed): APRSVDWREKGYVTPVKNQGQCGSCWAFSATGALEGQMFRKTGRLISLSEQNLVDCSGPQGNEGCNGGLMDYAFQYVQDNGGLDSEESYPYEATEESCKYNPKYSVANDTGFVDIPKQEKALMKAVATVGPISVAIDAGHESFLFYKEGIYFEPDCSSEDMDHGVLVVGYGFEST
- Sequence (P07711 292-333 limits assumed): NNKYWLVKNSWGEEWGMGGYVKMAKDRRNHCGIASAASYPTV
- test_method_notes: Cathepsin L assay, IC50 determination
- Assay type: biochemical
- test_context: IC50 @ 10 min, Cathepsin L, human liver; no preincubation; 10 min

>  <cpd_smiles>
CCc1ccccc1NC(=O)CSC(=O)NNC(=O)[C@H](Cc1c[nH]c2ccccc12)NC(=O)OC(C)(C)C

>  <unit_descriptor>
µM

>  <IC50>
0.155

$$$$

---

- target_or_system: human cathepsin V (Homo sapiens)
- Construct: purchased Calbiochem 219467
- Sequence (O60911 114-334): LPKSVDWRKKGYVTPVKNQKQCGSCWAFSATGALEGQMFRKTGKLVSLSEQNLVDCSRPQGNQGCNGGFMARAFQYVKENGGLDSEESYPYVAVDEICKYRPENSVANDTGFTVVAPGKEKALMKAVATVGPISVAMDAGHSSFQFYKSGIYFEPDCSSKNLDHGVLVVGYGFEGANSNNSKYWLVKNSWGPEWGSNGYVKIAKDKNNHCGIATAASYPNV
- test_method_notes: Selectivity assay, cathepsin V
- Assay type: biochemical
- test_context: Cathepsin V; no preincubation; 30 min; read-out: IC50 @ 30 min
pIC50: −log10 of the molar value.
property_label: pIC50

>  <compound>
CCc1ccccc1NC(=O)CSC(=O)NNC(=O)[C@H](Cc1c[nH]c2ccccc12)NC(=O)OC(C)(C)C [Compound No. 1]

>  <target_or_system>
human cathepsin V (Homo sapiens)

>  <property_label>
pIC50

>  <reported>
6.16

$$$$

---

- target_or_system: human cathepsin K (Homo sapiens)
- Construct: purchased Calbiochem 342001
- Sequence (P43235 115-329): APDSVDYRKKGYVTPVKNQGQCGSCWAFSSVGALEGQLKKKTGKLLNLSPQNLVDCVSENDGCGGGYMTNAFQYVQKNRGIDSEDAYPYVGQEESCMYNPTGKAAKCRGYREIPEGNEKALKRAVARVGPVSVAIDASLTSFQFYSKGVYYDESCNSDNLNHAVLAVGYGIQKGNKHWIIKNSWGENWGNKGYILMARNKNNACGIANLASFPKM
- test_method_notes: Selectivity assay, cathepsin K
- Format: biochemical
- test_context: Cathepsin K; no preincubation; 60 min; read-out: IC50 @ 60 min
pIC50: −log10 of the molar value.

>  <cpd_smiles>
CCc1ccccc1NC(=O)CSC(=O)NNC(=O)[C@H](Cc1c[nH]c2ccccc12)NC(=O)OC(C)(C)C

>  <pIC50>
5.07

$$$$

---

- System: SARS coronavirus pseudotype
- test_method_notes: microbe, parasite or virus in culture
- Format: cell-based
- test_context: Severe acute respiratory syndrome coronavirus, HEK-293T, read-out: IC50, SARS-CoV pseudotype entry
property_label: IC50 (nM)

>  <cpd_smiles>
CC(C)(C)OC(=O)N[C@@H](Cc1c[nH]c2ccccc12)C(=O)NNC(=O)OCC(=O)N1CCCc2ccccc21

>  <target_or_system>
SARS coronavirus pseudotype

>  <property_label>
IC50

>  <reported>
273

$$$$

---

- target_or_system: Human spleen cathepsin S (Homo sapiens)
- Construct: Human spleen cathepsin S (Calbiochem 219344, 40 ng/mL); purchased Calbiochem 219344; host or cells: human spleen
- test_method_notes: Cathepsin S assay, IC50 determination
- Format: biochemical
- test_context: Table 1; read-out: IC50 Cat S
pIC50: −log10 of the molar value.
property_label: pIC50

>  <cpd_smiles>
CC(C)(C)OC(=O)N[C@@H](Cc1c[nH]c2ccccc12)C(=O)NNC(=O)SCC(=O)N1CCOc2ccccc21

>  <target_or_system>
Human spleen cathepsin S (Homo sapiens)

>  <measurement_qualifier>
=

>  <reported>
6.02

$$$$
>  <cpd_smiles>
CCc1ccccc1NC(=O)CSC(=O)NNC(=O)[C@@H](C)CO[Si](C)(C)C(C)(C)C

>  <target_or_system>
Human spleen cathepsin S (Homo sapiens)

>  <measurement_qualifier>
<

>  <reported>
4.60

$$$$
>  <cpd_smiles>
CCc1ccccc1NC(=O)CSC(=O)NNC(=O)[C@H](CCCCNC(=O)OCc1ccccc1)NC(=O)OC(C)(C)C

>  <target_or_system>
Human spleen cathepsin S (Homo sapiens)

>  <measurement_qualifier>
=

>  <reported>
5.67

$$$$
>  <cpd_smiles>
C[C@@H](CO)C(=O)NNC(=O)SCC(=O)N1CCCc2ccccc21

>  <target_or_system>
Human spleen cathepsin S (Homo sapiens)

>  <measurement_qualifier>
<

>  <reported>
4.60

$$$$
>  <cpd_smiles>
C[C@H](CO)C(=O)NNC(=O)SCC(=O)N1CCCc2ccccc21

>  <target_or_system>
Human spleen cathepsin S (Homo sapiens)

>  <measurement_qualifier>
<

>  <reported>
4.60

$$$$
>  <cpd_smiles>
CC(C)(C)OC(=O)N[C@@H](Cc1ccc(OCc2ccccc2)cc1)C(=O)NNC(=O)SCC(=O)Nc1ccccc1[N+](=O)[O-]

>  <target_or_system>
Human spleen cathepsin S (Homo sapiens)

>  <measurement_qualifier>
=

>  <reported>
5.68

$$$$
>  <cpd_smiles>
CC(C)(C)OC(=O)N1CCC[C@H]1C(=O)NNC(=O)SCC(=O)N1CCCc2ccccc21

>  <target_or_system>
Human spleen cathepsin S (Homo sapiens)

>  <measurement_qualifier>
<

>  <reported>
4.60

$$$$

---

- target_or_system: Human spleen cathepsin S (Homo sapiens, UniProt P25774)
- Construct: Human spleen cathepsin S (Calbiochem 219344, 40 ng/mL); purchased Calbiochem 219344; host or cells: human spleen
- test_method_notes: Cathepsin S assay, IC50 determination
- Format: biochemical
- test_context: Cathepsin S; no preincubation; 60 min; read-out: IC50 @ 60 min
property_label: IC50

>  <compound>
CCc1ccccc1NC(=O)CSC(=O)NNC(=O)[C@H](Cc1c[nH]c2ccccc12)NC(=O)OC(C)(C)C [Compound No. 1]

>  <reported>
724 nM

$$$$

---

- target_or_system: Papain from Carica papaya (Carica papaya, UniProt P00784)
- Construct: Papain from Carica papaya (Calbiochem 5125, 11 ng/mL); purchased Calbiochem 5125; host or cells: Carica papaya
- Sequence (P00784 134-345): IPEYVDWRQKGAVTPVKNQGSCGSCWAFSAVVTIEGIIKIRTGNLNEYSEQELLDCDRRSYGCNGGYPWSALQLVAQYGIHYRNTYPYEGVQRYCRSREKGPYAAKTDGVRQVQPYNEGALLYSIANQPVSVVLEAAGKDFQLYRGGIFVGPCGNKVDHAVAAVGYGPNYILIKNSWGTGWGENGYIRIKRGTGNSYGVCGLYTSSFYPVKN
- test_method_notes: Selectivity assay, papain
- Assay type: biochemical
- test_context: IC50 @ 10 min, Papain, Carica papaya; no preincubation; 10 min
pIC50: −log10 of the molar value.

>  <cpd_smiles>
CCc1ccccc1NC(=O)CSC(=O)NNC(=O)[C@H](Cc1c[nH]c2ccccc12)NC(=O)OC(C)(C)C

>  <pIC50>
5.17

$$$$

---

Below, each entry is listed alongside its reported pIC50.
- target_or_system: human cathepsin L (Homo sapiens, UniProt P07711)
- test_method_notes: Preincubation studies, cathepsin L
- Type: biochemical
- Set-up: 8.7 ng/mL human liver cathepsin L (Calbiochem 219402); purchased Calbiochem 219402; host or cells: human liver
- test_context: preincubation with enzyme 4 h; read-out: IC50 against human cathepsin L after 4 hours preincubation
pIC50: −log10 of the molar value.
property_label: pIC50

>  <cpd_smiles>
CCc1ccccc1NC(=O)CSC(=O)NNC(=O)[C@H](Cc1c[nH]c2ccccc12)NC(=O)OC(C)(C)C

>  <property_label>
pIC50

>  <reported>
9.00

$$$$
>  <cpd_smiles>
CC(C)(C)OC(=O)N[C@@H](Cc1c[nH]c2ccccc12)C(=O)NNC(=O)OCC(=O)N1CCCc2ccccc21

>  <property_label>
pIC50

>  <reported>
9.40

$$$$
